# Measurement Target: S. pneumoniae Topoisomerase IV ATPase (ParE) (Streptococcus pneumoniae serotype 4, UniProt Q59961)
# Sequence (Q59961 whole entry): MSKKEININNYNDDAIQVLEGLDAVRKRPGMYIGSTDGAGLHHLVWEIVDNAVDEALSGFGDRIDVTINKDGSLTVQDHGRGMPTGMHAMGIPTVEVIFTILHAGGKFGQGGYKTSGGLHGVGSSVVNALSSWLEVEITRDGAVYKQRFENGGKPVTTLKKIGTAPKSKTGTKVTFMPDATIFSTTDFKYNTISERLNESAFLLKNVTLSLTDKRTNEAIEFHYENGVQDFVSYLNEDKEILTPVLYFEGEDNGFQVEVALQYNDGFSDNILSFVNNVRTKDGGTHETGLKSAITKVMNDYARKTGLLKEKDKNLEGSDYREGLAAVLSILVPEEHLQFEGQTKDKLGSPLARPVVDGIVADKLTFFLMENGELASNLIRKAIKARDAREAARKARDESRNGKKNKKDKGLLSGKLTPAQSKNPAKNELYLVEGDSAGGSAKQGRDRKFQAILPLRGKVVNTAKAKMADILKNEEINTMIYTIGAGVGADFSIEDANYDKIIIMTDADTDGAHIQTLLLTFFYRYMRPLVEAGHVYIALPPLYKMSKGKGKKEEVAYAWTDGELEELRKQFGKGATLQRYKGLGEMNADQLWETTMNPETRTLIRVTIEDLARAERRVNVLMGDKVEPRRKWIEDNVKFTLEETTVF
# Test Description: S. pneumoniae Topoisomerase IV ATPase inhibition
# Format: biochemical
# Assay Setup: values marked * are an average of two or more data points, read-out: % Inh (13 μM) of S. pneumoniae Topoisomerase IV ATPase
For each record, write down the corresponding inhibition at 13 µM.
Number only, in %; omit the unit.

Task item: Param item = COc1cc(C)cc(Nc2ncc(-c3cncc(C(=O)O)c3)c(-n3nc(C(F)(F)F)cc3C)n2)c1 ; retrieve measured inhibition at 13 µM.
Reply: 100

Task item: Requested field: inhibition at 13 µM. Item: COc1cc(Nc2ncc(-c3cc(C(=O)NS(C)(=O)=O)c(=O)n(C)c3)c(-n3ccc(C(F)(F)F)n3)n2)cc(OC)c1
Reply: 100

Task item: Please report the recorded inhibition at 13 µM for Cc1cc(C)cc(Nc2ncc(-c3ccc4c(c3)C(=O)NS4(=O)=O)c(-n3nc(C(F)(F)F)cc3C)n2)c1 .
Reply: 100

Task item: Which inhibition at 13 µM is reported for this compound? COc1cc(Nc2ncc(-c3cnc(NCCS(C)(=O)=O)c(C(=O)O)c3)c(-n3ccc(C(F)(F)F)n3)n2)cc(OC)c1
Reply: 100

Task item: Tell me the measured inhibition at 13 µM of CCOC(=O)c1cncc(-c2cnc(Nc3ccc(F)c(Cl)c3)nc2N2CCC(OC)CC2)c1 , please.
Reply: 57.9

Task item: Need inhibition at 13 µM, item Cc1cc(C)n(-c2nc(Nc3ccc(F)c(Cl)c3)ncc2-c2cncnc2)n1
Reply: 80.1

Task item: Recorded inhibition at 13 µM for CCOC(=O)c1cncc(-c2cnc(Nc3ccc(F)c(Cl)c3)nc2N2CCCCC2)c1 , please?
Reply: 0.54

* * *

# Measurement Target: S. pneumoniae Topoisomerase IV ATPase (ParE) (Streptococcus pneumoniae serotype 4)
# Test Description: S. pneumoniae Topoisomerase IV ATPase inhibition
# Type: biochemical
# Assay Setup: values marked * are an average of two or more data points, read-out: % Inh (13 μM) of S. pneumoniae Topoisomerase IV ATPase
Label 1 (yes) when inhibition at 13 µM is at or above 80%; otherwise label 0 (no).

Task item: Kindly determine if inhibition at 13 µM recorded for CCOC(=O)/C=C/c1cccc(-c2cnc(Nc3ccc(F)c(Cl)c3)nc2NC(COC)COC)c1 [Example 173] is above or exactly 80%.
Reply: 0 (no)

Task item: Exam item: decide whether the reported inhibition at 13 µM for OCC1CCCN(c2nc(Nc3ccc(F)c(Cl)c3)ncc2-c2cncnc2)C1 (stereo not shown) [Example 61] is at least 80%.
Reply: 0 (no)

Task item: Decide: inhibition at 13 µM of CCOC(=O)c1cn(CCOC)c2ccc(-c3cnc(Nc4ccc(F)c(Cl)c4)nc3NCCCOC)cc2c1=O [Example 177] >= 80%?
Reply: 0 (no)

Task item: Say whether CCNC(=O)c1ccc(-c2cnc(Nc3ccc(F)c(Cl)c3)nc2NCCCN(C)C)s1 [Example 367] shows inhibition at 13 µM of 80% or more.
Reply: 1 (yes)

Task item: Identify whether the reported inhibition at 13 µM of the following compound is 80% or greater: CCOC(=O)c1cncc(-c2cnc(Nc3ccc(F)c(Cl)c3)nc2NCc2ccccn2)c1 [Example 95]
Reply: 0 (no)

Task item: inhibition at 13 µM >= 80% for O=C(O)Cn1cc(-c2cnc(Nc3ccc(F)c(Cl)c3)nc2N2CCOCC2)cn1 [Example 485] ?
Reply: 1 (yes)

Task item: Check this compound for inhibition at 13 µM at or above 80%: COCCCNc1nc(Nc2ccc(F)c(Cl)c2)ncc1-c1ccc2cc(C(=O)O)[nH]c2c1 [Example 1061]
Reply: 1 (yes)

Task item: Exam item: decide whether the reported inhibition at 13 µM for CN1CCC(Oc2ncc(-c3cnc(Nc4ccc(F)c(Cl)c4)nc3-n3ccc(C(F)(F)F)n3)cc2C(=O)O)C1 (stereo not shown) [Example 789] is at least 80%.
Reply: 1 (yes)

Task item: Reported inhibition at 13 µM reaches at least 80% for COc1cc(C)cc(Nc2ncc(-c3cnc(OC)c(C(=O)NS(C)(=O)=O)c3)c(-n3nc(C(F)(F)F)cc3C)n2)c1 [Example 857] ?
Reply: 1 (yes)

Task item: Check this compound for inhibition at 13 µM at or above 80%: COc1cc(F)cc(Nc2ncc(-c3cncc(C(=O)O)c3)c(-n3nc(C(F)(F)F)cc3C)n2)c1 [Example 916]
Reply: 1 (yes)

Task item: Does O=C(O)c1cncc(-c2cnc(Nc3ccc(F)c(Cl)c3)nc2N2CCC(N3CCOCC3)CC2)c1 [Example 246] have a reported inhibition at 13 µM of at least 80%?
Reply: 0 (no)

Task item: Threshold query (inhibition at 13 µM >= 80%) on Fc1ccc(Nc2ncc(-c3cncnc3)c(NCc3ccco3)n2)cc1Cl [Example 53]
Reply: 0 (no)

Task item: Check this compound for inhibition at 13 µM at or above 80%: COc1cc(Nc2ncc(-c3cnc(-n4cccn4)c(C(=O)O)c3)c(-n3ccc(C(F)(F)F)n3)n2)cc(OC)c1 [Example 589]
Reply: 1 (yes)

Task item: Can CCS(=O)(=O)NC(=O)c1cc(-c2cnc(Nc3cc(OC)cc(OC)c3)nc2-n2ccc(C(F)(F)F)n2)cn(CCOC)c1=O [Example 1164] be said to have inhibition at 13 µM at or above 80%?
Reply: 1 (yes)

Just for reference, patent US20100137313A1 is where these values come from.
